- ASSAY_NOTES: Minimum inhibitory concentration against Haemophilus influenzae ATCC 51907
- Format: functional
I'd appreciate it if you marked entries Yes when MIC is lower than 20 µg/mL and No when it is not.

>  <SMILES_REPRESENTATION>
CC(C)(C)OC(=O)c1cn(C[C@H]2CN(c3ccc(C4=CCS(=O)(=O)CC4)c(F)c3)C(=O)O2)nn1

>  <LABEL_CLASS>
No

$$$$
>  <SMILES_REPRESENTATION>
CC(C)c1cn(C[C@H]2CN(c3ccc(C4=CCS(=O)(=O)CC4)c(F)c3)C(=O)O2)nn1

>  <LABEL_CLASS>
No

$$$$
>  <SMILES_REPRESENTATION>
O=C1O[C@@H](Cn2nncc2F)CN1c1ccc(C2=CCS(=O)(=O)CC2)c(F)c1

>  <LABEL_CLASS>
No

$$$$
>  <SMILES_REPRESENTATION>
Cc1cnnn1C[C@H]1CN(c2ccc(C3=CCS(=O)(=O)CC3)c(F)c2)C(=O)O1

>  <LABEL_CLASS>
No

$$$$
>  <SMILES_REPRESENTATION>
O=C1O[C@@H](Cn2cc(F)nn2)CN1c1ccc(C2=CCS(=O)(=O)CC2)c(F)c1

>  <LABEL_CLASS>
Yes

$$$$
>  <SMILES_REPRESENTATION>
Cc1cn(C[C@H]2CN(c3ccc(C4=CCS(=O)(=O)CC4)c(F)c3)C(=O)O2)nn1

>  <LABEL_CLASS>
Yes

$$$$
>  <SMILES_REPRESENTATION>
CCc1cn(C[C@H]2CN(c3ccc(C4=CCS(=O)(=O)CC4)c(F)c3)C(=O)O2)nn1

>  <LABEL_CLASS>
Yes

$$$$
>  <SMILES_REPRESENTATION>
O=Cc1cn(C[C@H]2CN(c3ccc(C4=CCS(=O)(=O)CC4)c(F)c3)C(=O)O2)nn1

>  <LABEL_CLASS>
Yes

$$$$
>  <SMILES_REPRESENTATION>
O=C1O[C@@H](Cn2cc(COP(=O)(Oc3ccccc3)Oc3ccccc3)nn2)CN1c1ccc(C2=CCS(=O)(=O)CC2)c(F)c1

>  <LABEL_CLASS>
No

$$$$

Qu. is_below(MIC, 20 µg/mL) for O=C1O[C@@H](Cn2ccnn2)CN1c1ccc(C2=CCS(=O)(=O)CC2)c(F)c1 ?
Ans. Yes

###

// endpoint pKi / system Amine oxidase [flavin-containing] A (Homo sapiens, UniProt P21397)
To interpret pKi, take it as minus log10 of a concentration measured in moles per litre.

As a guide, the following entries are already answered.
>  <SMILES_REPRESENTATION>
O=C1O[C@@H](Cn2cc(Cl)nn2)CN1c1ccc(C2=CCS(=O)(=O)CC2)c(F)c1

>  <PROPERTY_MEASURED>
pKi

>  <TEST_RESULT>
5.52

$$$$
>  <SMILES_REPRESENTATION>
CC(C)(C)OC(=O)c1cn(C[C@H]2CN(c3ccc(C4=CCS(=O)(=O)CC4)c(F)c3)C(=O)O2)nn1

>  <PROPERTY_MEASURED>
pKi

>  <TEST_RESULT>
5.46

$$$$
>  <SMILES_REPRESENTATION>
O=Cc1cn(C[C@H]2CN(c3ccc(C4=CCS(=O)(=O)CC4)c(F)c3)C(=O)O2)nn1

>  <PROPERTY_MEASURED>
pKi

>  <TEST_RESULT>
5.49

$$$$

Now let's try a different one.
Qu. Determine reported pKi for O=C1O[C@@H](Cn2nncc2F)CN1c1ccc(C2=CCS(=O)(=O)CC2)c(F)c1 ; test system: Amine oxidase [flavin-containing] A (Homo sapiens, UniProt P21397).
Ans. 5.80

###

Recorded MIC by entry
- Tested on: Streptococcus pneumoniae
- ASSAY_NOTES: Minimum inhibitory concentration against penicillin susceptible Streptococcus pneumoniae AP671401
- Assay type: functional

>  <SMILES_REPRESENTATION>
CC(=O)NC[C@H]1CN(c2ccc(C3=CCS(=O)(=O)CC3)c(F)c2)C(=O)O1

>  <TEST_RESULT>
0.25 µg/mL

$$$$

Qu. Determine reported MIC for C[Si](C)(C)C#Cc1cn(C[C@H]2CN(c3ccc(C4=CCS(=O)(=O)CC4)c(F)c3)C(=O)O2)nn1 ; test system: Streptococcus pneumoniae.
Ans. 1 µg/mL

Qu. Determine reported MIC for C#Cc1cn(C[C@H]2CN(c3ccc(C4=CCS(=O)(=O)CC4)c(F)c3)C(=O)O2)nn1 ; test system: Streptococcus pneumoniae.
Ans. 0.5 µg/mL

Qu. Determine reported MIC for O=C1O[C@@H](Cn2cc(Cl)nn2)CN1c1ccc(C2=CCS(=O)(=O)CC2)c(F)c1 ; test system: Streptococcus pneumoniae.
Ans. 0.25 µg/mL

Qu. Determine reported MIC for CCc1cn(C[C@H]2CN(c3ccc(C4=CCS(=O)(=O)CC4)c(F)c3)C(=O)O2)nn1 ; test system: Streptococcus pneumoniae.
Ans. 2 µg/mL

Qu. Determine reported MIC for O=C1O[C@@H](Cn2cc(CO)nn2)CN1c1ccc(C2=CCS(=O)(=O)CC2)c(F)c1 ; test system: Streptococcus pneumoniae.
Ans. 2 µg/mL

Qu. Determine reported MIC for CC(C)(C)OC(=O)c1cn(C[C@H]2CN(c3ccc(C4=CCS(=O)(=O)CC4)c(F)c3)C(=O)O2)nn1 ; test system: Streptococcus pneumoniae.
Ans. > 64 µg/mL

Qu. Determine reported MIC for Cc1cnnn1C[C@H]1CN(c2ccc(C3=CCS(=O)(=O)CC3)c(F)c2)C(=O)O1 ; test system: Streptococcus pneumoniae.
Ans. 64 µg/mL

Qu. Determine reported MIC for O=C1O[C@@H](Cn2nncc2F)CN1c1ccc(C2=CCS(=O)(=O)CC2)c(F)c1 ; test system: Streptococcus pneumoniae.
Ans. 8 µg/mL

Qu. Determine reported MIC for Cc1cn(C[C@H]2CN(c3ccc(C4=CCS(=O)(=O)CC4)c(F)c3)C(=O)O2)nn1 ; test system: Streptococcus pneumoniae.
Ans. 0.5 µg/mL

###

- Test system: Streptococcus pneumoniae
- ASSAY_NOTES: Minimum inhibitory concentration against penicillin susceptible Streptococcus pneumoniae AP671401
- Assay type: functional
Recorded log10 MIC by entry
Use the decimal logarithm of MIC (µg/mL).

As a guide, the following entries are already answered.
>  <SMILES_REPRESENTATION>
O=Cc1cn(C[C@H]2CN(c3ccc(C4=CCS(=O)(=O)CC4)c(F)c3)C(=O)O2)nn1

>  <log10 MIC>
0.30

$$$$
>  <SMILES_REPRESENTATION>
N#CCc1cn(C[C@H]2CN(c3ccc(C4=CCS(=O)(=O)CC4)c(F)c3)C(=O)O2)nn1

>  <log10 MIC>
0.00

$$$$

Qu. Please report log10 MIC for the following molecule: O=C1O[C@@H](Cn2cc(/C=C/Br)nn2)CN1c1ccc(C2=CCS(=O)(=O)CC2)c(F)c1
Ans. 0.30

Qu. Please report log10 MIC for the following molecule: O=C1O[C@@H](Cn2ccnn2)CN1c1ccc(C2=CCS(=O)(=O)CC2)c(F)c1
Ans. -0.30

Qu. Please report log10 MIC for the following molecule: O=C1O[C@@H](Cn2cc(C=C(Br)Br)nn2)CN1c1ccc(C2=CCS(=O)(=O)CC2)c(F)c1
Ans. 0.60

Qu. Please report log10 MIC for the following molecule: O=C1O[C@@H](Cn2cc(F)nn2)CN1c1ccc(C2=CCS(=O)(=O)CC2)c(F)c1
Ans. -0.60

Qu. Please report log10 MIC for the following molecule: CC(C)c1cn(C[C@H]2CN(c3ccc(C4=CCS(=O)(=O)CC4)c(F)c3)C(=O)O2)nn1
Ans. 0.60

Qu. Please report log10 MIC for the following molecule: O=C1O[C@@H](Cn2cc(Br)nn2)CN1c1ccc(C2=CCS(=O)(=O)CC2)c(F)c1
Ans. -0.30

Qu. Please report log10 MIC for the following molecule: O=C1O[C@@H](Cn2cc(COP(=O)(Oc3ccccc3)Oc3ccccc3)nn2)CN1c1ccc(C2=CCS(=O)(=O)CC2)c(F)c1
Ans. 0.60

###

- TESTED_ON: Amine oxidase [flavin-containing] A (Homo sapiens)
- Sequence (P21397 whole entry): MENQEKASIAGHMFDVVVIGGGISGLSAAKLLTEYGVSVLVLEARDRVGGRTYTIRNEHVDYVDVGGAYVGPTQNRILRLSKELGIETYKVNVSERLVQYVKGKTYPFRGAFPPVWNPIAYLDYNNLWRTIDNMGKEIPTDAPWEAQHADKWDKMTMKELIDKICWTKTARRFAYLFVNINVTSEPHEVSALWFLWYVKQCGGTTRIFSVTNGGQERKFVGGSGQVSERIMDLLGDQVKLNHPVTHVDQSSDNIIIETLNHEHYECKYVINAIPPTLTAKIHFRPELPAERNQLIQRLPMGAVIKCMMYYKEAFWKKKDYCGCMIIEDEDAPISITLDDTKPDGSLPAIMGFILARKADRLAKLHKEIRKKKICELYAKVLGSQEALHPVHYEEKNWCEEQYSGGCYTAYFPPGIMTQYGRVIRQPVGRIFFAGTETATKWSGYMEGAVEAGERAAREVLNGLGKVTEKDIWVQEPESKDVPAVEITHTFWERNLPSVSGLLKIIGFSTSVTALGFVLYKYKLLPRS
PROPERTY_MEASURED: Ki

>  <SMILES_REPRESENTATION>
O=C1O[C@@H](Cn2cc(Br)nn2)CN1c1ccc(C2=CCS(=O)(=O)CC2)c(F)c1

>  <Ki>
16 µM

$$$$
>  <SMILES_REPRESENTATION>
O=C1O[C@@H](Cn2cc(COP(=O)(Oc3ccccc3)Oc3ccccc3)nn2)CN1c1ccc(C2=CCS(=O)(=O)CC2)c(F)c1

>  <Ki>
> 100 µM

$$$$
>  <SMILES_REPRESENTATION>
O=C1O[C@@H](Cn2cc(C=C(Br)Br)nn2)CN1c1ccc(C2=CCS(=O)(=O)CC2)c(F)c1

>  <Ki>
> 100 µM

$$$$

Now let's try a different one.
Qu. Please report Ki for the following molecule: CCc1cn(C[C@H]2CN(c3ccc(C4=CCS(=O)(=O)CC4)c(F)c3)C(=O)O2)nn1
Ans. > 200 µM
